Origin of measurements: the supplement of paper PMC10567573

B1: TRIM35 (parent)
chain: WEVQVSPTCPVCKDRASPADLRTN

Variants of: B1
Assay: protein stability index of a GFP-peptide fusion (GPS, HEK-293T) (PSI 1-6); higher = more stable;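 also: lentivirally expressed fusions sorted by FACS into six bins by GFP to DsRed ratio, PSI derived from sequencing read proportions per bin multiplied by bin number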
Conditions: c terminus: a fixed tail appended
Measured quantity: protein stability index
// return a plain number; no unit text

Given V3D , state its recorded protein stability index. 3.35

Given P18V , state its recorded protein stability index. 2.57

Given S6P , state its recorded protein stability index. 2.87

Given S17L , state its recorded protein stability index. 2.75

Given D14H , state its recorded protein stability index. 1.81
